measured_on: Somatostatin receptor 1 (SSTR1) (human), P30872
Sequence (P30872 whole entry): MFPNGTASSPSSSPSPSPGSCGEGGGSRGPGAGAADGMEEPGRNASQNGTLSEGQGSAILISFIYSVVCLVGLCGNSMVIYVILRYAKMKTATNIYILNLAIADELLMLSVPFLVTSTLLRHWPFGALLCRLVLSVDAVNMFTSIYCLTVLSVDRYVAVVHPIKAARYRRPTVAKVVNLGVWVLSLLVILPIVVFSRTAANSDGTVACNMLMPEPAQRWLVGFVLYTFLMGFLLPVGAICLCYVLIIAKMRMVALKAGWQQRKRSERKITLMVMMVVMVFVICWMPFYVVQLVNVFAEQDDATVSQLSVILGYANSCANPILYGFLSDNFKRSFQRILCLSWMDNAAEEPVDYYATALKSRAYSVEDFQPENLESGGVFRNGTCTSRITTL
condition_label: N-octanoyl amide on the N-terminal residue; L-mesityl alanine (Msa) at position 6; D-Trp at position 7; disulfide bridge between the two cysteines
assay_metric: IC50

What value of IC50 has been recorded for this entry: PCKNFFWKTFTSCK [Cortistatin analogue 3]
> 300 nM
